Recorded logP for the following compounds
Experiment Description: log P by HPLC on reversed-phase column (C 18), EEC Directive 79/831 Annex V.A8
Assay type: physicochemical
Test Parameters: Table 1; HPLC, 0.1% aqueous formic acid and acetonitrile, 40° C.; single value, or first value of a mixture of two diastereoisomers
Keep it simple and answer with nothing but the number.

> print(dat)
                                   compound  reported.value
1  Cn1cc(C(=O)N2CCCC2C2CCc3cc(F)ccc32)c(C(F)F)n1 (mixture of isomers) [I.17]            2.84
2  Cn1nc(C(F)F)c(C(=O)N2CCCCC2C2CCOc3ccccc32)c1F (mixture of isomers) [I.36]            2.86
3  Cn1cc(C(=O)N2CCCCC2C2CCc3ccccc32)c(C(F)F)n1 (mixture of isomers) [I.29]            2.96
4  Cn1nc(C(F)F)c(C(=O)N2CCCC2C2CCc3c(F)cccc32)c1F (mixture of isomers) [I.03]            3.31
5  Cc1cc(C(=O)N2CCCC2C2CCc3c(F)cccc32)c(C)o1 (single isomer, unassigned) [I.07]            3.90

Task item: Can you look up the measured logP of Cc1nc(C(F)F)c(C(=O)N2CCCC2C2CCc3cc(F)cc(F)c32)s1 (single isomer, unassigned) [I.38] for me?
Reply: 3.55

###

Experiment Description: log P by HPLC on reversed-phase column (C 18), EEC Directive 79/831 Annex V.A8
Format: physicochemical
Test Parameters: Table 1; HPLC, 0.1% aqueous formic acid and acetonitrile, 40° C.; second value of a mixture of two diastereoisomers
logP less than 4 is met; logP greater than or equal to 4 is not met.

> print(dat)
                                    compound    label
 1  Cn1nc(C(F)F)c(C(=O)N2CCCC2C2CCc3cc(F)cc(F)c32)c1F (mixture of isomers)      met
 2  Cn1nc(C(F)F)c(C(=O)N2CCCC2C2CCc3c(F)cccc32)c1F (mixture of isomers)      met
 3  Cn1nc(C(F)F)c(C(=O)N2CCCC2C2CCCc3ccccc32)c1Cl (mixture of isomers)      met
 4  Cn1cc(C(=O)N2CCCCC2C2CCOc3ccccc32)c(C(F)F)n1 (mixture of isomers)      met
 5  Cn1cc(C(=O)N2CCCC2C2CCc3ccc(Cl)cc32)c(C(F)F)n1 (mixture of isomers)      met
 6  Cn1nc(C(F)F)c(C(=O)N2CCCC2C2CCc3ccc(Cl)cc32)c1F (mixture of isomers)      met
 7  Cn1nc(C(F)F)c(C(=O)N2CCCCC2C2CCCCc3ccccc32)c1F (mixture of isomers)  not met
 8  Cn1nc(C(F)F)c(C(=O)N2CCCCC2C2CCOc3ccccc32)c1F (mixture of isomers)      met
 9  Cn1cc(C(=O)N2CCCC2C2CCc3cc(F)ccc32)c(C(F)F)n1 (mixture of isomers)      met
10  Cn1nc(C(F)F)c(C(=O)N2CCCC2C2CCc3cc(Cl)cc(Cl)c32)c1Cl (mixture of isomers)  not met

Task item: Identify whether the compound Cn1cc(C(=O)N2CCCC2C2CCCc3ccccc32)c(C(F)F)n1 (mixture of isomers) records logP below 4.
Reply: met

Task item: Identify whether the compound Cn1cc(C(=O)N2CCCC2C2CCc3c(F)cccc32)c(C(F)F)n1 (mixture of isomers) records logP below 4.
Reply: met

Task item: Identify whether the compound Cn1cc(C(=O)N2CCCCC2C2CCc3ccccc32)c(C(F)F)n1 (mixture of isomers) records logP below 4.
Reply: met

Task item: Identify whether the compound Cn1cc(C(=O)N2CCCCC2C2CCCCc3ccccc32)c(C(F)F)n1 (mixture of isomers) records logP below 4.
Reply: met

Task item: Identify whether the compound Cn1nc(C(F)F)c(C(=S)N2CCCC2C2CCCc3ccccc32)c1Cl (mixture of isomers) records logP below 4.
Reply: not met

Task item: Identify whether the compound Cn1nc(C(F)F)c(C(=O)N2CCCC2C2CCc3cc(F)ccc32)c1F (mixture of isomers) records logP below 4.
Reply: met

Task item: Identify whether the compound Cn1nc(C(F)F)c(C(=O)N2CCCCC2C2CCc3ccccc32)c1F (mixture of isomers) records logP below 4.
Reply: met

Task item: Identify whether the compound Cn1nc(C(F)F)c(C(=O)N2CCCC2C2CCc3cc(F)cc(F)c32)c1Cl (mixture of isomers) records logP below 4.
Reply: met

Task item: Identify whether the compound Cn1nc(C(F)F)c(C(=O)N2CCCC2C2CCCc3ccccc32)c1F (mixture of isomers) records logP below 4.
Reply: met

###

Experiment Description: log P by HPLC on reversed-phase column (C 18), EEC Directive 79/831 Annex V.A8
Format: physicochemical
Test Parameters: reversed-phase HPLC column (C 18), separated diastereoisomers, preparation Example 1; read-out: log P
Endpoint Name: chromatographic logP
Keep it simple and answer with nothing but the number.

Task item: Can you look up the measured chromatographic logP of Cn1nc(C(=O)N2CCCC2C2CCc3cc(F)cc(F)c32)c(C(F)F)n1 (single isomer, unassigned) for me?
Reply: 3.63

###

Experiment Description: log P by HPLC on reversed-phase column (C 18), EEC Directive 79/831 Annex V.A8
Assay type: physicochemical
Test Parameters: reversed-phase HPLC column (C 18), Table 1; HPLC, 0.1% aqueous formic acid and acetonitrile, 40° C.; single value, or first value of a mixture of two diastereoisomers; read-out: logP
Endpoint Name: chromatographic logP
Keep it simple and answer with nothing but the number.

Task item: Can you look up the measured chromatographic logP of Cn1nc(C(=O)N2CCCC2C2CCc3cc(F)cc(F)c32)c(C(F)F)n1 (single isomer, unassigned) [I.14] for me?
Reply: 3.41

###

Recorded logP for the following compounds
Experiment Description: log P by HPLC on reversed-phase column (C 18), EEC Directive 79/831 Annex V.A8
Format: physicochemical
Test Parameters: Table 1; HPLC, 0.1% aqueous formic acid and acetonitrile, 40° C.; single value, or first value of a mixture of two diastereoisomers
Keep it simple and answer with nothing but the number.

> print(dat)
                                   compound  reported.value
1  Cn1cc(C(=O)N2CCCCC2C2CCCCc3ccccc32)c(C(F)F)n1 (mixture of isomers)            3.50

Task item: Can you look up the measured logP of Cn1nc(C(F)F)c(C(=O)N2CCCC2C2CCc3cc(F)ccc32)c1Cl (centres unmarked) for me?
Reply: 3.50

Task item: Can you look up the measured logP of Cn1nc(C(F)F)c(C(=O)N2CCCC2C2CCc3cc(Cl)cc(Cl)c32)c1Cl (mixture of isomers) for me?
Reply: 4.34

Task item: Can you look up the measured logP of Cn1cc(C(=O)N2CCCC2C2CCc3cc(F)cc(F)c32)c(C(F)(F)F)c1 (single isomer, unassigned) [I.39] for me?
Reply: 3.68

Task item: Can you look up the measured logP of O=C(c1ccsc1Br)N1CCCC1C1CCc2c(F)cccc21 (single isomer, unassigned) [I.04] for me?
Reply: 3.87

###

Experiment Description: log P by HPLC on reversed-phase column (C 18), EEC Directive 79/831 Annex V.A8
Format: physicochemical
Test Parameters: Table 1; HPLC, 0.1% aqueous formic acid and acetonitrile, 40° C.; single value, or first value of a mixture of two diastereoisomers
Protocol: In table 1, the log P values were determined in accordance with EEC Directive 79/831 Annex V.A8 by HPLC (High Performance Liquid Chromatography) on a reversed-phase column (C 18), using the method described below: Temperature: 40° C.; Mobile phases: 0.1% aqueous formic acid and acetonitrile; linear gradient from 10% acetonitrile to 90% acetonitrile. […]
logP less than 4 is TRUE; logP greater than or equal to 4 is FALSE.

Look over these answered cases.
> print(dat)
                                   molecule  label
1  Cn1cc(C(=O)N2CCCC2C2CCCc3ccccc32)c(C(F)F)n1 (mixture of isomers) [I.27]   TRUE
2  Cn1nc(C(F)F)c(C(=O)N2CCCC2C2CCCc3ccccc32)c1F (mixture of isomers) [I.26]   TRUE
3  Cn1nc(C(F)F)c(C(=O)N2CCCC2C2CCc3cc(F)cc(F)c32)c1Cl (mixture of isomers) [I.12]   TRUE
4  Cn1cc(C(=O)N2CCCCC2C2CCOc3ccccc32)c(C(F)F)n1 (mixture of isomers) [I.35]   TRUE

Task item: Identify whether the molecule Cn1nc(C(F)F)c(C(=O)N2CCCC2C2CCc3cc(F)cc(F)c32)c1F (mixture of isomers) [I.13] records logP below 4.
Reply: TRUE

Task item: Identify whether the molecule Cn1cc(C(=O)N2CCCC2C2CCc3cc(Cl)cc(Cl)c32)c(C(F)F)n1 (stereo not drawn) [I.08] records logP below 4.
Reply: TRUE

Task item: Identify whether the molecule Cn1nc(C(F)F)c(C(=O)N2CCCC2C2CCCc3ccccc32)c1Cl (mixture of isomers) [I.25] records logP below 4.
Reply: TRUE

Task item: Identify whether the molecule Cn1nc(C(F)F)c(C(=S)N2CCCC2C2CCCc3ccccc32)c1Cl (mixture of isomers) [I.28] records logP below 4.
Reply: FALSE
